species on record: Rattus norvegicus; assay: Open TG-GATES - Regimen: Daily Repeat; type: toxicity, organism-based, Sprague-Dawley; design: regimen Daily Repeat, gender Male, age 6 weeks; details: in vivo, po, 300 mg/kg, […], tissue Plasma, route gavage, dose level Middle, time 28 day
Readings of gamma-GTP for the listed compounds
# output: bare number, implied unit IU/L

{"compound": "CCN1CCCC1CNC(=O)c1cc(S(N)(=O)=O)ccc1OC (centres undefined) [SULPIRIDE]", "unit-info": "IU/L", "gamma-GTP": 1}
{"compound": "O=C(O)c1cccnc1", "unit-info": "IU/L", "gamma-GTP": 2.8}
{"compound": "CC(C)(S)[C@@H](N)C(=O)O", "unit-info": "IU/L", "gamma-GTP": 1}

Return reported gamma-GTP. Input compound: `O=C(N[C@H](CO)[C@H](O)c1ccc([N+](=O)[O-])cc1)C(Cl)Cl`
1.2

Just for reference, ChEMBL document CHEMBL3885861 is where these values come from.
